Listing of entries alongside the reported viability at 24 h, 1.7 μg/ml.
- method.notes: MTT assay, cell viability
- Type: cell-based
- reported.conditions: human, MDA-MB-231 breast cancer cells, 1.7 μg/ml, read-out: MTT incorporation (cell viability) as percentage of control
Report only the number, with the unit % understood.

[[record]]
molecule = "NC(=O)N1c2ccccc2C=Cc2ccccc21 [CBZ, Carbamazepine]"
experimental_value = 45


Moving on to another molecule below.
Exam item: Reported viability at 24 h, 1.7 μg/ml, molecule Cc1cc(C)nc(NS(=O)(=O)c2ccc(N)cc2)n1 [SMZ, Sulfamethazine] : ____
Marked response: 40

* * *

- method.notes: MTT assay, cell viability
- Format: cell-based
- reported.conditions: human, MDA-MB-231 breast cancer cells, 0.0425 μg/ml, read-out: MTT incorporation (cell viability) as percentage of control
This listing pairs compounds with measured viability at 24 h, 0.0425 μg/ml.
Your answer should be a plain number; it is taken to be in %.

[[record]]
compound = "NC(=O)N1c2ccccc2C=Cc2ccccc21 [CBZ, Carbamazepine]"
experimental_value = 80


Then there is this compound:
Exam item: GET /values?readout=viability at 24 h, 0.0425 μg/ml&item= Cc1cc(C)nc(NS(=O)(=O)c2ccc(N)cc2)n1 [SMZ, Sulfamethazine]
Marked response: 80
